system: human PKK mRNA; test: Antisense inhibition of human PKK mRNA in HepaRG cells, 3,000 nM (Example 1); format: cell-based; conditions: Table 2; PKK mRNA, HepaRG cells, 3,000 nM, electroporation, ~24 h, relative to untreated control cells
Strand notation (5' to 3'): a small letter for the sugar, then the base; units joined by * are phosphorothioate-linked, units joined directly phosphodiester-linked; [ ] holds rarer units or linkages, { } end groups; capitals alone tell only the bases. e = 2'-O-(2-methoxyethyl) (MOE); [5mC] = 5-methylcytosine; d = 2'-deoxy (DNA)
Ranges used to classify % inhibition: interval 1: < 50%; interval 2: ≥ 50% and < 60%; interval 3: ≥ 60%

Record excerpt, results attached:
1) 531074 (e[5mC]*eT*eT*eT*eG*d[5mC]*dA*dG*dA*dT*dG*dA*dG*dG*dA*e[5mC]*e[5mC]*e[5mC]*e[5mC]*e[5mC]; antisense) [compound 531074] = interval 3
2) 531036 (antisense eG*eT*eG*eT*e[5mC]*dA*d[5mC]*d[5mC]*dT*dT*dT*dG*dG*dA*dA*eG*eG*eT*eA*eG) [compound 531036] = interval 3
3) 486847 (antisense eA*eG*eG*e[5mC]*eA*dT*dA*dT*dT*dG*dG*dT*dT*dT*dT*eT*eG*eG*eA*eA) [compound 486847] = interval 3
4) 531067 (eT*eA*e[5mC]*eT*e[5mC]*dA*dG*d[5mC]*dG*dA*d[5mC]*dT*dT*dT*dG*eG*eT*eG*eT*eA; antisense) [compound 531067] = interval 1
5) 531069 (e[5mC]*e[5mC]*eA*eG*eT*d[5mC]*d[5mC]*dA*dT*dG*dT*dA*d[5mC]*dT*d[5mC]*eA*eG*e[5mC]*eG*eA; antisense) [compound 531069] = interval 2

Sort into band: 531013 (e[5mC]*e[5mC]*eA*eG*eG*dG*d[5mC]*d[5mC]*dA*d[5mC]*dT*d[5mC]*dT*d[5mC]*d[5mC]*e[5mC]*e[5mC]*eA*eA*eG; antisense) [compound 531013]
interval 2

Into which category would you place 531049 (antisense eT*eT*eA*eT*eT*dT*dT*dA*dT*dA*dA*dT*d[5mC]*dT*dT*eG*eA*eT*eA*eT) [compound 531049] ?
interval 1

Lab log: 531040 (antisense eT*e[5mC]*e[5mC]*eT*eT*d[5mC]*dG*dA*dG*dA*dA*dG*d[5mC]*d[5mC]*d[5mC]*e[5mC]*eA*eT*e[5mC]*e[5mC]) [compound 531040] — assign % inhibition category
interval 1
